experiment: ATG_GRE_CIS: Attagene CIS-FACTORIAL HepG2 Assay for human Glucocorticoid Response Elements (GRE) (AID 2282947); settings: HepG2 GRE cis-reporter, Attagene multiplex mRNA; actives raise or lower the signal
The source made the active and inactive calls. Rule for the calls: active = hit-call score of the fitted dose curve at least 0.9, where 1 is the maximum; inactive = score below 0.9.
Outcome codes: active, inactive

| line-notation | cat |
| --- | --- |
| O=S(=O)(Oc1ccc(Cl)cc1)c1ccc(Cl)cc1 | inactive |
| CC(C)CC(C)(c1ccc(O)cc1)c1ccc(O)cc1 | inactive |
| C=CC(=O)OCC(COC(=O)C=C)(COC(=O)C=C)COC(=O)C=C | inactive |
| O=[N+]([O-])c1ccc(Cl)c([N+](=O)[O-])c1 | inactive |
| OC[P+](CO)(CO)CO | inactive |
| CCCCCCCCCCBr | inactive |
| COC(=O)c1cc(Oc2ccc(Cl)cc2Cl)ccc1[N+](=O)[O-] | inactive |
| O=C(Cc1ccccc1)OCCc1ccccc1 | inactive |
| C[C@]12CC[C@@H](O)C[C@@H]1CC[C@@H]1[C@@H]2CC[C@]2(C)C(=O)CC[C@@H]12 | inactive |
| Cc1ccc2nc3sc(=O)sc3nc2c1 | active |
| O=c1[nH]c2ccccc2n1C1CCN(CCCC(c2ccc(F)cc2)c2ccc(F)cc2)CC1 | inactive |
| CC(c1ccc(O)cc1)c1ccc(O)cc1 | inactive |
